# TEST SYSTEM: T1, Recombinant Human DLL4 (delta-like protein 4) (human, UniProt Q9NR61 27-524)
# T1 construct: Bought recombinant human DLL4 (R&D Systems Cat#1506-D4/CF), coated on the plate; also called rHuman DLL4; Delta-like 4
# ASSAY COMMENT: ECL (MSD) 96-well plate assay, recombinant human DLL4 coated, Fab in solution
Overview of recorded ECL signal for various binders
// no unit, no text: just the number

Below: 2 binders and their reported ECL signal.
{"columns": ["BINDER", "ECL signal"],
 "data": [
  ["Fab VH1-46_IGHD6-6*01_IGHJ1*01 S102A/S103P/S104F/H111F (H:APFF) & L6_IGKJ1*01 S28N/S30D/S31H N53A (Fab, V domains shown, Fab made in E. coli: heavy chain from Plasmid A (CH1, His6 and Flag tags), kappa light chain from Plasmid C (kappa CL); also called H:APFF & L:NDH N53A) VH: QVQLVQSGAEVKKPGASVKVSCKASGYTFTSYYMHWVRQAPGQGLEWMGIINPSGGSTSYAQKFQGRVTMTRDTSTSTVYMELSSLRSEDTAVYYCAREEYAPFSAEYFQFWGQGTLVTVSS VL: EIVLTQSPATLSLSPGERATLSCRASQNVDHYLAWYQQKPGQAPRLLIYDASARATGIPARFSGSGSGTDFTLTISSLEPEDFAVYYCQQRSNWPPWTFGQGTKVEIKR", 14200],
  ["Fab VH1-46_IGHD6-6*01_IGHJ1*01 S102A/S103P/S104F/H111F (H:APFF) & L6_IGKJ1*01 S28N/S30D/S31H A55C (Fab, V domains shown, Fab made in E. coli: heavy chain from Plasmid A (CH1, His6 and Flag tags), kappa light chain from Plasmid C (kappa CL); also called H:APFF & L:NDH A55C) VH: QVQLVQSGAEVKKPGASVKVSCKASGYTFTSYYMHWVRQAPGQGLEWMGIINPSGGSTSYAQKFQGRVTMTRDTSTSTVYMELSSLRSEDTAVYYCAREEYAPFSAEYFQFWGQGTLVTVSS VL: EIVLTQSPATLSLSPGERATLSCRASQNVDHYLAWYQQKPGQAPRLLIYDASNRCTGIPARFSGSGSGTDFTLTISSLEPEDFAVYYCQQRSNWPPWTFGQGTKVEIKR", 8230]
]}

I am curious: what ECL signal value has been reported for Fab VH1-46_IGHD6-6*01_IGHJ1*01 S102A/S103P/S104F/H111F (H:APFF) & L6_IGKJ1*01 S28N/S30D/S31H A55S (Fab, V domains shown, Fab made in E. coli: heavy chain from Plasmid A (CH1, His6 and Flag tags), kappa light chain from Plasmid C (kappa CL); also called H:APFF & L:NDH A55S) VH: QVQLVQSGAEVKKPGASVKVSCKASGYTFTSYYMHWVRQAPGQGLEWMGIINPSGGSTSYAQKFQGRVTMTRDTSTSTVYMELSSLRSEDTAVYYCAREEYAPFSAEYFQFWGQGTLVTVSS VL: EIVLTQSPATLSLSPGERATLSCRASQNVDHYLAWYQQKPGQAPRLLIYDASNRSTGIPARFSGSGSGTDFTLTISSLEPEDFAVYYCQQRSNWPPWTFGQGTKVEIKR ?
20000
